Kindly supply the reported solubility kinetic at 1.5 h values for the records listed here.
experiment-summary: Kinetic solubility of the compound in PBS at pH 7.4 at 6.75 to 200 uM after 90 mins by UV absorbance based assay
Assay type: physicochemical
conditions-used: read-out: Kinetic_solubility

{"smiles-code": "N=C(N)c1ccc(NC(=O)[C@H](NS(=O)(=O)c2ccc(F)cc2)C2CCCCC2)cc1", "solubility kinetic at 1.5 h": "200 µM"}
{"smiles-code": "Cc1ccc(S(=O)(=O)N[C@@H](C(=O)Nc2ccc(C(=N)N)cc2)C2CCCCC2)cc1", "solubility kinetic at 1.5 h": "> 200 µM"}

solubility kinetic at 1.5 h in this record for Cc1ccc(S(=O)(=O)N[C@@H](C(=O)Nc2ccc(C(=N)N)cc2)c2ccccc2)cc1 : > 200 µM

* * *

experiment-summary: Chromatographic hydrophobicity index, log D of the compound at pH 7 by HPLC/UV analysis
Type: physicochemical
conditions-used: buffer
Record form. Attribute: chromatographic logD. Fill in for each entry.
One number for each entry.

Kindly give each listed record's chromatographic logD.
1. Cc1ccc(S(=O)(=O)N(C)C(CC(C)C)C(=O)Nc2ccc(C(=N)N)cc2)cc1 (stereo unspecified)
2. Cc1ccc(S(=O)(=O)N[C@@H](C(=O)Nc2ccc(C(=N)N)cc2)C2CCCCC2)cc1
3. Cc1ccc(S(=O)(=O)N[C@H](C(=O)Nc2ccc(C(=N)N)cc2)C2CCCCC2)cc1
4. Cc1ccc(S(=O)(=O)NCC(Cc2ccccc2)C(=O)Nc2ccc(C(=N)N)cc2)cc1 (stereo unspecified)

Outgoing:
1. 1.8
2. 1.3
3. 1.3
4. 1.6

// for each molecule in input: emit chromatographic logD
1. N=C(N)c1ccc(NC(=O)[C@H](NS(=O)(=O)c2ccc(C(F)(F)F)cc2)C2CCCCC2)cc1
2. Cc1ccc(S(=O)(=O)NC(CC2CCCC2)C(=O)Nc2ccc(C(=N)N)cc2)cc1 (stereo unspecified)
3. Cc1ccc(C(=O)N[C@@H](C(=O)Nc2ccc(C(=N)N)cc2)C2CCCCC2)cc1
4. Cc1ccc(S(=O)(=O)NC(C(=O)Nc2ccc(C(=N)N)cc2)C(C)C)cc1 (stereo unspecified)
5. Cc1ccc(S(=O)(=O)NC(C(=O)Nc2ccc(C(=N)N)cc2)C2CCCC2)cc1 (stereo unspecified)
6. Cc1ccc(S(=O)(=O)NC(C(=O)Nc2ccc(C(=N)N)cc2)C2CCOCC2)cc1 (stereo unspecified)
7. Cc1ccc(S(=O)(=O)NC(CC(=O)Nc2ccc(C(=N)N)cc2)C2CCCCC2)cc1 (stereo unspecified)
8. COc1ccc(S(=O)(=O)N[C@@H](C(=O)Nc2ccc(C(=N)N)cc2)C2CCCCC2)cc1

Outgoing:
1.7
1.5
1.7
0.8
0.4
0.4
1.4
1.3

Answer for every listed entry: what is its chromatographic logD? The entries follow.
1. CCCCC(NS(=O)(=O)c1ccc(C)cc1)C(=O)Nc1ccc(C(=N)N)cc1F (stereo unspecified)
2. N=C(N)c1ccc(NC(=O)[C@H](NS(=O)(=O)c2ccccc2)C2CCCCC2)cc1
3. Cc1ccc(NC(=O)N[C@@H](C(=O)Nc2ccc(C(=N)N)cc2)C2CCCCC2)cc1
4. Cc1ccc(S(=O)(=O)NC(CC(C)C)C(=O)Nc2ccc(C(=N)N)cc2)cc1 (stereo unspecified)

Outgoing:
1: 1.4; 2: 1.2; 3: 1.5; 4: 1.2

# return chromatographic logD for each item in the list
1. CCCCC(NS(=O)(=O)c1ccc(C)cc1)C(=O)Nc1ccc(C(=N)N)cc1 (stereo unspecified)
2. CCCCC(NS(=O)(=O)c1ccc(C)cc1)C(=O)Nc1cccc(C(=N)N)c1 (stereo unspecified)
3. N=C(N)c1ccc(NC(=O)[C@H](NS(=O)(=O)c2ccc(Cl)cc2)C2CCCCC2)cc1
4. Cc1ccc(S(=O)(=O)N2CCCC2C(=O)Nc2ccc(C(=N)N)cc2)cc1 (stereo unspecified)

Outgoing:
1. 1.2
2. 1.1
3. 1.5
4. 0.5

The molecule Cc1ccc(S(=O)(=O)NC(C(=O)Nc2ccc(C(=N)N)cc2)c2ccccc2)cc1 (stereo unspecified) showed chromatographic logD equal to 0.9

* * *

assayed-target: Serine protease hepsin (Homo sapiens, UniProt P05981)
Sequence (P05981 1-162 limits assumed): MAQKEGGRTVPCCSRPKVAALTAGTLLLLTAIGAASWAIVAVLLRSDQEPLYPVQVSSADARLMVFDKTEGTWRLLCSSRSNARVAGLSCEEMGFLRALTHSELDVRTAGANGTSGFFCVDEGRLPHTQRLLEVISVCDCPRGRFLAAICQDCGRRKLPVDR
Sequence (P05981 163-417 limits assumed): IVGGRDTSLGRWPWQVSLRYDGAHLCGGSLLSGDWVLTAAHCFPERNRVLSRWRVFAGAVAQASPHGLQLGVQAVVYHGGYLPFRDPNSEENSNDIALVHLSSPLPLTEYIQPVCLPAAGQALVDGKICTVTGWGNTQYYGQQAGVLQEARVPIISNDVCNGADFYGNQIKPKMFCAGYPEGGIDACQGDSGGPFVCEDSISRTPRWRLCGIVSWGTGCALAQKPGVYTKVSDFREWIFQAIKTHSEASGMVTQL
experiment-summary: Inhibition of doxycycline induced Hepsin in human MCF10A cells using Boc-QRR-AMC as substrate preincubated for 24 hrs followed by doxycycline induction for 24 hrs and subsequent addition of substrate by fluorescence assay
Type: cell-based
property-name: pIC50
One number for each entry, as −log10 of the molar value.

Guide cases for pIC50, answers given:
{"smiles-code": "Cc1ccc(S(=O)(=O)N[C@@H](C(=O)Nc2ccc(C(=N)N)cc2)C2CCCCC2)cc1", "pIC50": 6.00}
{"smiles-code": "Cc1ccc(S(=O)(=O)N[C@@H](C(=O)Nc2ccc(C(=N)N)cc2)c2ccccc2)cc1", "pIC50": 7.00}
{"smiles-code": "CCOC(=O)N1CCN(C(=O)[C@@H](Cc2cccc(C(=N)N)c2)NS(=O)(=O)c2c(C(C)C)cc(C(C)C)cc2C(C)C)CC1", "pIC50": 5.19}
{"smiles-code": "N=C(N)c1ccc(NC(=O)[C@H](NS(=O)(=O)c2ccc(F)cc2)C2CCCCC2)cc1", "pIC50": 5.89}

With those in mind, consider the next molecule.
Sure, the documented pIC50 for N=C(N)c1ccc(NC(=O)[C@H](NS(=O)(=O)c2ccc(C(F)(F)F)cc2)C2CCCCC2)cc1 is 5.50

* * *

assayed-target: Urokinase-type plasminogen activator (Homo sapiens)
experiment-summary: Inhibition of recombinant C-terminal His10-tagged human uPA (M1 to L431 residues) expressed in mouse NS0 cells using Z-GGR-AMC as substrate after 15 mins by manual fluorescence assay
property-name: pIC50
One number for each entry, as −log10 of the molar value.

// worked examples, pIC50 included
{"molecule": "N=C(N)c1cccc(C[C@H](NS(=O)(=O)c2ccc3ccccc3c2)C(=O)N2CCCC(C(=O)NCc3cccs3)C2)c1 (some centres not stated)", "pIC50": 5.22}
{"molecule": "N=C(N)c1ccc(NC(=O)[C@H](NS(=O)(=O)c2ccc(F)cc2)C2CCCCC2)cc1", "pIC50": 3.55}
{"molecule": "Cc1ccc(S(=O)(=O)NC(C(=O)Nc2ccc(C(=N)N)cc2)c2ccccc2)cc1 (configuration not stated)", "pIC50": 4.22}

// input: 2 molecules below; output: pIC50 for each
1. Cc1ccc(S(=O)(=O)NC(CCc2ccccc2)C(=O)Nc2ccc(C(=N)N)cc2)cc1 (configuration not stated)
2. Cc1ccc(S(=O)(=O)N[C@@H](C(=O)Nc2ccc(C(=N)N)cc2)c2ccccc2)cc1

Outgoing:
1. 4.59
2. 3.85

* * *

Species on record: Homo sapiens
experiment-summary: Selectivity ratio of IC50 for recombinant C-terminal His10-tagged human uPA (M1 to L431 residues) to IC50 for recombinant C-terminal His10-tagged human Hepsin (R45 to […] residues) D161E/ R162K double mutant by automated fluorescence assay
Would you mind sorting the entries by Ratio IC50 according to these classes? range 1 (below 5), range 2 (5 to below 20), range 3 (20 or more)

{"compound": "COc1ccc(S(=O)(=O)N[C@@H](C(=O)Nc2ccc(C(=N)N)cc2)C2CCCCC2)cc1", "class": "range 3"}

Incoming: Which Ratio IC50 category applies to N=C(N)c1ccc(NC(=O)[C@H](NS(=O)(=O)c2ccc(Cl)cc2)C2CCCCC2)cc1 here?
Outgoing: range 3

Incoming: # bin label for CCCCC(NS(=O)(=O)c1ccc(C)cc1)C(=O)Nc1ccc(C(=N)N)cc1F (centres undefined)
Outgoing: range 2

Incoming: Which band does Cc1ccc(S(=O)(=O)NC(C(=O)Nc2ccc(C(=N)N)cc2)C(C)C)cc1 (centres undefined) fall in?
Outgoing: range 1

Incoming: Lab log: Cc1ccc(S(=O)(=O)NC(CC(=O)Nc2ccc(C(=N)N)cc2)C2CCCCC2)cc1 (centres undefined) — assign Ratio IC50 category
Outgoing: range 2

Incoming: // bin(item) where item = Cc1ccc(S(=O)(=O)NCC(Cc2ccccc2)C(=O)Nc2ccc(C(=N)N)cc2)cc1 (centres undefined)
Outgoing: range 1

* * *

assayed-target: Serine protease hepsin (Homo sapiens)
experiment-summary: Inhibition of recombinant Hepsin (unknown origin)
property-name: pIC50
Give bare numbers, as −log10 of the molar value.

Value of pIC50 reported for the compound CCOC(=O)N1CCN(C(=O)[C@@H](Cc2cccc(C(=N)N)c2)NS(=O)(=O)c2c(C(C)C)cc(C(C)C)cc2C(C)C)CC1 is 5.52

* * *

assayed-target: Serine protease hepsin (Homo sapiens, UniProt P05981, D161E/R162K)
experiment-summary: Inhibition of recombinant C-terminal His10-tagged human Hepsin (R45 to […] residues) D161E/ R162K double mutant expressed in mouse NS0 cells using Boc-QRR-AMC as substrate after 15 mins by automated fluorescence assay
Hi! Just check whether IC50 is below 1000 nM. Below gives yes (1), equal or above gives no (0).

See these solved cases before continuing.
{"compound": "COC(=O)N1CCN(C(=O)[C@H](Cc2cccc(C(=N)N)c2)NS(=O)(=O)c2ccc3ccccc3c2)CC1", "class": "no (0)"}
{"compound": "COC(=O)C(Cc1cccc(C(=N)N)c1)NC(=O)CNS(=O)(=O)c1ccc(C)cc1 (stereo not drawn)", "class": "no (0)"}
{"compound": "Cc1ccc(S(=O)(=O)NC(CC(=O)Nc2ccc(C(=N)N)cc2)C2CCCCC2)cc1 (stereo not drawn)", "class": "no (0)"}
{"compound": "CCCCC(NS(=O)(=O)c1ccc(C)cc1)C(=O)Nc1ccc(C(=N)N)cc1F (stereo not drawn)", "class": "yes (1)"}
{"compound": "N=C(N)NCCC[C@@H](NC(=O)c1ccc2ccccc2c1O)C(=O)N1CCC[C@@H]1C(N)=O", "class": "no (0)"}
{"compound": "Cc1ccc(NC(=O)N[C@@H](C(=O)Nc2ccc(C(=N)N)cc2)C2CCCCC2)cc1", "class": "no (0)"}
{"compound": "N=C(N)c1ccc(NC(=O)[C@H](NS(=O)(=O)c2ccc(Cl)cc2)C2CCCCC2)cc1", "class": "yes (1)"}
{"compound": "CCOC(=O)c1ccc(OC(=O)CCCCCNC(=N)N)cc1 [GABEXATE]", "class": "yes (1)"}
{"compound": "N=C(N)c1ccc(NC(=O)[C@H](NS(=O)(=O)c2ccc(F)cc2)C2CCCCC2)cc1", "class": "yes (1)"}
{"compound": "CN(C)C(=O)N1CCN(C(=O)[C@@H](Cc2cccc(C(=N)N)c2)NS(=O)(=O)c2ccc3ccccc3c2)CC1", "class": "no (0)"}

Incoming: Report whether reported IC50 is lower than 1000 nM (strictly) for N=C(N)c1ccc2cc(OC(=O)c3ccc(N=C(N)N)cc3)ccc2c1
Outgoing: yes (1)

Incoming: Lab note: confirm whether the reported IC50 for this compound is below 1000 nM, equality not counting. compound: COc1ccc(S(=O)(=O)N[C@@H](C(=O)Nc2ccc(C(=N)N)cc2)C2CCCCC2)cc1
Outgoing: yes (1)

Incoming: Please let me know if Cc1ccc(S(=O)(=O)NC(C(=O)Nc2ccc(C(=N)N)cc2)C(C)C)cc1 (stereo not drawn) shows IC50 below 1000 nM.
Outgoing: no (0)

Incoming: # check: IC50 < 1000 nM for Cc1ccc(S(=O)(=O)NC(CC2CCCC2)C(=O)Nc2ccc(C(=N)N)cc2)cc1 (stereo not drawn)
Outgoing: yes (1)

Incoming: Answer whether the compound Cc1ccc(S(=O)(=O)NCC(Cc2ccccc2)C(=O)Nc2ccc(C(=N)N)cc2)cc1 (stereo not drawn) has IC50 strictly less than 1000 nM
Outgoing: no (0)

Incoming: Hello, is IC50 of the following compound strictly smaller than 1000 nM? Cc1ccc(S(=O)(=O)N(C)C(CC(C)C)C(=O)Nc2ccc(C(=N)N)cc2)cc1 (stereo not drawn)
Outgoing: no (0)

Incoming: Strictly below 1000 nM: is that where IC50 of N=C(N)c1ccc(C[C@@H](NC(=O)CNS(=O)(=O)c2ccc3ccccc3c2)C(=O)N2CCCCC2)cc1 sits?
Outgoing: no (0)

Incoming: Determine whether this compound shows IC50 lower than 1000 nM (ties excluded): N=C(N)c1ccc(NC(=O)[C@H](NS(=O)(=O)c2ccccc2)C2CCCCC2)cc1
Outgoing: no (0)

Incoming: Please indicate whether the reported IC50 of CCOC(=O)N1CCN(C(=O)[C@@H](Cc2cccc(C(=N)N)c2)NS(=O)(=O)c2c(C(C)C)cc(C(C)C)cc2C(C)C)CC1 is strictly below 1000 nM.
Outgoing: no (0)

Incoming: Lab log: compare recorded IC50 with 1000 nM; is it strictly lower for Cc1ccc(S(=O)(=O)NC(C(=O)Nc2ccc(C(=N)N)cc2)C2CCCC2)cc1 (stereo not drawn) ?
Outgoing: yes (1)

Incoming: Say whether its IC50 is strictly beneath 1000 nM. Entry: Cc1ccc(S(=O)(=O)N[C@@H](C(=O)Nc2ccc(C(=N)N)cc2)C2CCCCC2)cc1
Outgoing: yes (1)

Incoming: Strictly below 1000 nM: is that where IC50 of Cc1ccc(C(=O)N[C@@H](C(=O)Nc2ccc(C(=N)N)cc2)C2CCCCC2)cc1 sits?
Outgoing: no (0)

Incoming: Could you please tell me whether IC50 recorded for CCCCC(NS(=O)(=O)c1ccc(C)cc1)C(=O)Nc1ccc(Br)cc1 (stereo not drawn) is less than 1000 nM?
Outgoing: no (0)

Incoming: Given the entry Cc1ccc(S(=O)(=O)NC(C(=O)Nc2ccc(C(=N)N)cc2)C2CCOCC2)cc1 (stereo not drawn) , would its reported IC50 be below 1000 nM?
Outgoing: no (0)

Incoming: In plain terms, does Cc1ccc(S(=O)(=O)NC(CCc2ccccc2)C(=O)Nc2ccc(C(=N)N)cc2)cc1 (stereo not drawn) come in under 1000 nM for IC50?
Outgoing: no (0)

Incoming: Bench note: check whether N=C(N)c1cccc(C[C@H](NS(=O)(=O)c2ccc3ccccc3c2)C(=O)N2CCCC(C(=O)NCc3cccs3)C2)c1 (stereo partly drawn) shows IC50 below 1000 nM
Outgoing: yes (1)

Incoming: Dear reviewer, please state whether CC1CNc2c(cccc2S(=O)(=O)N[C@@H](CCCN=C(N)N)C(=O)N2CC[C@H](C)CC2C(=O)O)C1 (stereo partly drawn) has IC50 strictly beneath 1000 nM.
Outgoing: no (0)

Incoming: is_below(IC50, 1000 nM) for N=C(N)c1ccc(/C=C2\CCCC/C(=C\c3ccc(C(=N)N)cc3)C2=O)cc1 ?
Outgoing: yes (1)

Incoming: Is IC50 of N=C(N)c1ccc(NC(=O)[C@H](NS(=O)(=O)c2ccc(C(F)(F)F)cc2)C2CCCCC2)cc1 strictly below 1000 nM?
Outgoing: yes (1)

Incoming: IC50 strictly < 1000 nM for this compound? CCCCC(NS(=O)(=O)c1ccc(C)cc1)C(=O)Nc1cccc(C(=N)N)c1 (stereo not drawn)
Outgoing: no (0)

Ref: ChEMBL document CHEMBL4118144
